TESTED_SYSTEM: T1, human MSLN-R1-his protein (human, UniProt Q13421 296-390)
T1 construct: Region 1 of human MSLN, His-tagged; also called human MSLN-R1 protein; hMSLN-R1-his; not shown: His tag
T1 chain: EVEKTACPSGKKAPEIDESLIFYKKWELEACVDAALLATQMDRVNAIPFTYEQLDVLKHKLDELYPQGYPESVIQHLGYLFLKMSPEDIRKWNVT
RUN_DESCRIPTION: ELISA, coated MSLN-R1;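 note: serially diluted chimeric antibodies bound to the coated, BSA-blocked plate for 2 h at 37 °C, with TMB colour read after acid stop and a negative control antibody alongside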

- BINDER: "S009-F2.21.4 (antibody, human IgG1, kappa, V domains shown, Human-murine chimeric antibody, human IgG1/kappa constant regions) VH: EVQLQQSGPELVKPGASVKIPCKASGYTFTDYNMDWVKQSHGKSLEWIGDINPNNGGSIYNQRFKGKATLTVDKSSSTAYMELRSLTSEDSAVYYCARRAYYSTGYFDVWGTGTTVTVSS VL: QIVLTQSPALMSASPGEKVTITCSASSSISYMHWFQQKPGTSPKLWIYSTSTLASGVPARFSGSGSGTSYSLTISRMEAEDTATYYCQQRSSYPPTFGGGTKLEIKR"
  OD450 at 0.0001 nM (OD450): 0.05
- BINDER: "S009-F2.23.12 (antibody, human IgG1, kappa, V domains shown, Human-murine chimeric antibody, human IgG1/kappa constant regions) VH: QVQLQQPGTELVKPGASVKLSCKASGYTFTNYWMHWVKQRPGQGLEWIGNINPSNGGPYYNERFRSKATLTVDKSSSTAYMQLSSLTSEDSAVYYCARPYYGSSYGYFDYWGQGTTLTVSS VL: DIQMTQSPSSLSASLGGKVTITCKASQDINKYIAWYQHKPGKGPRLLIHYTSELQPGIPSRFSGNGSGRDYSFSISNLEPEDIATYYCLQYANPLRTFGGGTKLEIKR"
  OD450 at 0.0001 nM (OD450): 0.05
- BINDER: "S009-F2.39.3 (antibody, human IgG1, kappa, V domains shown, Human-murine chimeric antibody, human IgG1/kappa constant regions) VH: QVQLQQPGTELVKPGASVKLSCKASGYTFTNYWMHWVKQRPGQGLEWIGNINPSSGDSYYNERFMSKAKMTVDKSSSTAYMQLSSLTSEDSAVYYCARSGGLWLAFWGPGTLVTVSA VL: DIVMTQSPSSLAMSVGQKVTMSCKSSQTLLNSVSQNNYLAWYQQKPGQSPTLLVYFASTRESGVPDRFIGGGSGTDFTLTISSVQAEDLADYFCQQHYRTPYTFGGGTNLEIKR"
  OD450 at 0.0001 nM (OD450): 0.05
- BINDER: "S009-F2.13.3 (antibody, human IgG1, kappa, V domains shown, Human-murine chimeric antibody, human IgG1/kappa constant regions) VH: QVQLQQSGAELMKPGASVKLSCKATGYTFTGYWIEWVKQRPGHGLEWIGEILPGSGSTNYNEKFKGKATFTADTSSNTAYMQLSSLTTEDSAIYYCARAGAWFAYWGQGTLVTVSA VL: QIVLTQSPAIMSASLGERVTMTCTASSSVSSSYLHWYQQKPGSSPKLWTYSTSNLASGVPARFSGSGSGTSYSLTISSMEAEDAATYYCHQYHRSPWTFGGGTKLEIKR"
  OD450 at 0.0001 nM (OD450): 0.05
- BINDER: "S009-F2.58.8 (antibody, human IgG1, kappa, V domains shown, Human-murine chimeric antibody, human IgG1/kappa constant regions) VH: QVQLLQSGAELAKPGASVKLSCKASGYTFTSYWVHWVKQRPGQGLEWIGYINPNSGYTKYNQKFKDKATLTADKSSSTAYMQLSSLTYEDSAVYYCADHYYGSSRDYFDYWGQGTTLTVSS VL: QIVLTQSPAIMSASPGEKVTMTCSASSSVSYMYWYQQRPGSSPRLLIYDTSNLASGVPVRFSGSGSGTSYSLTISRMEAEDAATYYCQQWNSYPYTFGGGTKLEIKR"
  OD450 at 0.0001 nM (OD450): 0.05
